EXPERIMENT NOTES: viability loss with induced miR-34 in A549 – imaging, A549 dox-inducible miR-34, nuclei and caspase counts, primary screen (AID 1347080)
CONDITION: A549 miR-34 inducible, Hoechst nuclei count, 48 h; measured here: total cells without miR-34 induction
MEASURE NAME: cell count
Could you respond with only the numeric value?

Reference set, count: 2
# COMPOUND, RECORDED NUMBER
data = [
    ("Nc1nc2[nH]c(=O)[nH]c2c(=O)[nH]1", 6740),
    ("CC1(C)Cc2c(-c3ccccc3)c(-c3ccc(Cl)cc3)c(CC(=O)O)n2C1", 5520),
]

Prompt line: Quick one: cell count of Cc1noc(NS(=O)(=O)c2cccc3c(N(C)C)cccc23)c1C ?
Response line: 8630

Prompt line: Next: C[C@H](NC[C@H](O)CP(=O)(O)Cc1ccccc1)c1ccc(Cl)c(Cl)c1
Response line: 9210

Prompt line: Quick one: O=C(O)CCCCCC[C@@H]1[C@@H](CC[C@@H](O)CCc2cccc(C(F)(F)F)c2)[C@H](O)C[C@@H]1O
Response line: 5440

Prompt line: Next: CN(N=O)C(=O)N[C@H]1C(O)O[C@H](CO)[C@@H](O)[C@@H]1O (some centres undefined)
Response line: 9160

Prompt line: Now give it for Oc1ccc(-c2nc3cc(O)cc(Br)c3o2)cc1 too.
Response line: 9400

Prompt line: Now the same for Cc1nnc(-c2ccc3occ(-c4ccc(S(C)=O)cc4)c3c2)o1 (centres undefined)
Response line: 5270

Prompt line: Also O=C(O)CCC/C=C\C[C@@H]1[C@@H](/C=C/C(=O)COc2cccc(C(F)(F)F)c2)[C@H](O)C[C@@H]1O ?
Response line: 6340

* * *

Recorded measurements of viability, one per entry
EXPERIMENT NOTES: drug combination growth inhibition, ovarian cancer – cell-based, oncology-focused library, rucaparib conditional, profiling panel (AID 1508598)
CONDITION: patient-derived ovarian cancer cells, CellTiter-Glo viability, 144 h; at 0.313 µM; OCI-C5x cells; with rucaparib 10 µM; stronger effect = lower value; 100% = cells with rucaparib alone
Calls of active or inactive are those of the source.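 Rule for the calls: active = normalized viability below 100% at a tested concentration; inactive = the rest.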

# example entries with known answers
# MOLECULE, RESULT
records = [
    ("C=CC(=O)Nc1cccc(Nc2nc(Nc3ccc(NC4CN(CCF)C4)cc3OC)ncc2C(F)(F)F)c1", "132% (inactive)"),
    ("Cc1cccc(-c2nn3c(c2-c2ccnc4ccc(C(N)=O)cc24)CCC3)n1", "114% (inactive)"),
    ("Cc1cnc(Nc2ccc(OCCN3CCCC3)cc2)nc1Nc1cccc(S(=O)(=O)NC(C)(C)C)c1", "105% (inactive)"),
    ("Cc1ccc(C(=O)N(CCCN)[C@@H](c2nc3cc(Cl)ccc3c(=O)n2Cc2ccccc2)C(C)C)cc1", "56.5% (active)"),
]

Prompt line: What does the data say about its viability? Entry: Cc1cc(Nc2cc(N3CCN(C)CC3)nc(/C=C/c3ccccc3)n2)n[nH]1
Response line: 110% (inactive)

Prompt line: Do the same for CC(/C=C/C(=O)NO)=C\[C@@H](C)C(=O)c1ccc(N(C)C)cc1 please
Response line: 8.25% (active)

Prompt line: Try CNC(=O)c1cc(Oc2ccc(NC(=O)Nc3ccc(Cl)c(C(F)(F)F)c3)c(F)c2)ccn1 next.
Response line: 104% (inactive)

Prompt line: Next: CC(C)c1ccccc1Cc1cc(C(=O)Nc2ccc(S(=O)(=O)c3ccccc3C(C)(C)C)cc2)c(O)c(O)c1O
Response line: 101% (inactive)

Prompt line: Would you kindly repeat that for COc1ccc(S(=O)(=O)Nc2cccnc2Nc2ccc(O)cc2)cc1 ?
Response line: 58.8% (active)

Prompt line: Follow-up item: Cc1ccc2nc(NC(=O)CSc3nc4c(c(=O)n3-c3ccccc3)SCC4)sc2c1
Response line: 112% (inactive)

Prompt line: Same again, this time with CN(C)Cc1c(C(=O)NCCOc2ccc(C(=O)NO)cc2)oc2ccccc12
Response line: 123% (inactive)

Prompt line: Please give the result for CCC[C@H](Nc1nc(-c2ccc(NC(=O)NCC)c(OC)c2)ncc1C)c1cccnc1 too.
Response line: 39.7% (active)

* * *

EXPERIMENT NOTES: MELAS cybrid and Rieske KO viability enhancers – cell-based, MELAS cybrids, Rieske KO mouse fibroblasts, CellTiter-Glo, primary screen (AID 1508586);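 note: z relative to plate mean and SD of compound and empty wells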
CONDITION: MELAS cybrid survival, low glucose, CellTiter-Glo 48 h
Active and inactive are the calls of the source.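 Rule for the calls: active = mean z-score across replicates of 1.96 or higher in either the MELAS or the Rieske mutant cell line; inactive = the rest.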
Entry note: the call must match one of true (1) for active, false (0) for inactive

Solved cases below.
# MOLECULE, ASSIGNED CATEGORY
data = [
    ("CCOc1cc(N2CCC(O)CC2)ccc1Nc1ncc2c(n1)N(C)c1ccccc1C(=O)N2C", "false (0)"),
    ("Cc1ccc(S(=O)(=O)Nc2nc3ccccc3nc2Nc2ccc3nsnc3c2)cc1", "false (0)"),
    ("CC(=O)OCOC(=O)CN(CC(=O)OCOC(C)=O)c1ccccc1OCCOc1ccccc1N(CC(=O)OCOC(C)=O)CC(=O)OCOC(C)=O", "false (0)"),
]

Prompt line: Name the outcome recorded for CNCc1ccc(-c2[nH]c3cc(F)cc4c3c2CCNC4=O)cc1 in the assay.
Response line: false (0)

Prompt line: Do the same for COc1cc(OC2CCN(C)CC2)ccc1Nc1ncc2c(n1)n(C1CCCC1)c(=O)n2C please
Response line: false (0)

* * *

EXPERIMENT NOTES: drug combination growth inhibition, ovarian cancer – cell-based, oncology-focused library, rucaparib conditional, profiling panel (AID 1508598)
CONDITION: patient-derived ovarian cancer cells, CellTiter-Glo viability, 144 h; at 0.0781 µM; OCI-P5x cells; with rucaparib 20 µM; stronger effect = lower value; 100% = cells with rucaparib alone
Returns: string. Value is condition met if measured viability is below 90%, and condition not met if it is greater than or equal to it.

# MOLECULE, ASSIGNED CATEGORY
records = [
    ("CS(=O)(=O)N1CCN(Cc2cc3nc(-c4cccc5[nH]ncc45)nc(N4CCOCC4)c3s2)CC1", "condition not met"),
    ("C#Cc1cccc(Nc2ncnc3cc(OCCOC)c(OCCO)cc23)c1", "condition not met"),
    ("C=CC(=O)Nc1cccc(Oc2nc(Nc3ccc(N4CCN(C)CC4)cc3OC)ncc2Cl)c1", "condition not met"),
    ("OCCn1cc(-c2cnc3nnn(Cc4ccc5ncccc5c4)c3n2)cn1", "condition not met"),
    ("CCc1cc(Nc2nccc(-c3c(-c4ccc(OC)c(C(=O)Nc5c(F)cccc5F)c4)nc4ccccn34)n2)c(OC)cc1N1CCC(N2CCN(S(C)(=O)=O)CC2)CC1", "condition not met"),
]

Prompt line: Is it true that viability reported for COc1ccc(C2=NC(c3ccc(Cl)cc3)C(c3ccc(Cl)cc3)N2C(=O)N2CCNC(=O)C2)c(OC(C)C)c1 (stereo not given) is less than 90%?
Response line: condition not met

Prompt line: What do you get for N#Cc1c(NC(=O)c2cccc3ccccc23)sc2c1CCCC2 ?
Response line: condition not met

Prompt line: Now the same for COc1cc(Nc2nc3ccccc3nc2NS(=O)(=O)c2ccc(NC(=O)c3ccc(C)c(OC)c3)cc2)cc(OC)c1
Response line: condition not met

Prompt line: How about CCNC(=O)c1noc(-c2cc(C(C)C)c(O)cc2O)c1-c1ccc(CN2CCOCC2)cc1 ?
Response line: condition met

Prompt line: Next molecule: C[C@@H](Oc1cc(-c2cnn(C3CCNCC3)c2)cnc1N)c1c(Cl)ccc(F)c1Cl
Response line: condition not met

Prompt line: Item: C=CC(=O)Nc1cccc(Nc2nc(Nc3ccc(NC4CN(CCF)C4)cc3OC)ncc2C(F)(F)F)c1
Response line: condition not met

* * *

EXPERIMENT NOTES: growth inhibition of DIPG cells – cell-based, MIPE5.0 library, qHTS (AID 1347068);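 for IC50: cells exposed to compound for 48 hours before viability readout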
CONDITION: SU-DIPG-XXV viability
Records with an inconclusive call do not appear. Activity calls are given as the source filed them. Cut-off not given; nearly all actives show IC50 up to about 30 µM.
Answer with one of the outcomes given here: t = active, f = inactive

A selection of reference data follows.
# COMPOUND, ASSIGNED CATEGORY
measured = [
    ("OCc1ccc(-c2nn(Cc3ccccc3)c3ccccc23)o1", "f"),
    ("COC(=O)C1C2CC3c4[nH]c5cc(OC)ccc5c4CCN3CC2CC(OC(=O)c2cc(OC)c(OC)c(OC)c2)C1OC (configuration not stated)", "f"),
    ("Cc1nc(-c2cccnc2)sc1C(=O)Nc1ccccc1-c1cn2c(CN3CCOCC3)csc2n1", "f"),
]

Prompt line: Called result for Cc1ccc(CN2CCNCC2)cc1NC(=O)CNc1ccc(F)c(F)c1
Response line: f

Prompt line: Can you handle CC(C)(C)c1cc(C(=O)O)c(NC(=O)Nc2ccc3[nH]ncc3c2)s1 next?
Response line: f

Prompt line: Item: Nc1cc(C(F)(F)F)c(-c2cc(N3CCOCC3)nc(N3CCOCC3)n2)cn1
Response line: t

Prompt line: Entry COc1cc(NC(=O)c2ccc(-c3ccc(Cl)cc3)o2)cc(OC)c1 please
Response line: f

Values were extracted from PubChem BioAssay.
